# Target or test system: human IDO1 (Homo sapiens)
# Experimental protocol: Assessment of human IDO-1 inhibitory activity in HEK cells (human IDO1/HEK293 cells, kynurenine read-out with Ehrlich reagent, absorbance 490 nm)
# Assay type: cell-based
# Set-up: expressed in transfected cells
# Test context: HEK Human IDO-1 cellular assay
Observed property: IC50

Illustrative cases are given below, each with its answer.
>>> value_reported("CC(CC(=O)O)c1ccc(N2CCC[C@H]2C(C)(C)O)c(Nc2ccc(Cl)cc2)c1 (single isomer, unassigned) [Example 799]")
"> 0.05 µM"
>>> value_reported("CC[C@@H](CC(=O)O)c1ccc(N(CC)C2CCOCC2)c(Nc2ccc(S(=O)(=O)CC)cc2)c1 (single isomer, unassigned)")
"< 0.05 µM"
>>> value_reported("COCC(CC(=O)O)c1ccc(N(CC(C)C)CC(C)C)c(NC(=O)Nc2ccc(C)cc2)c1 (racemic) [Example 992]")
"< 0.05 µM"
>>> value_reported("CCN(c1ccc(C(CC(=O)O)c2ccccc2)cc1NC(=O)Nc1ccc(Cl)cc1F)C1CCOCC1 (single isomer, unassigned) [Example 585]")
"< 0.05 µM"
>>> value_reported("CCC(CC(=O)O)c1ccc(N2CCC[C@H]2C(C)(C)O)c(Nc2ccc(Cl)cc2)c1 (single isomer, unassigned) [Example 820]")
"< 0.005 µM"

-- ask State the recorded IC50 for this entry: CCOc1ccc(NC(=O)Nc2cc(C(COC)CC(=O)O)ccc2N(CC(C)C)C2CCCCC2)cc1 (single isomer, unassigned) [Example 1235]
-- reply < 0.005 µM

* * *

# Target or test system: UniProt:P14902
# Experimental protocol: Assessment of human IDO-1 inhibitory activity in Hela cells (Interferon-gamma stimulated HeLa cells, Ehrlich reagent, absorbance 490 nm)
# Type: cell-based
# Set-up: endogenous in cells; host or cells: HeLa cells stimulated with interferon-gamma
# Test context: Hela Human IDO-1 cellular assay
pIC50: −log10 of the molar value.
Observed property: pIC50

Some solved entries appear below for comparison.
>>> value_reported("CCOc1ncc(Nc2cc(C(COC)CC(=O)O)ccc2N2CCOC[C@@H]2C(C)C)cn1 (single isomer, unassigned)")
"< 7.30"
>>> value_reported("CCOc1ncc(Nc2cc(C(CC)CC(=O)O)ccc2N2C[C@@H]3C[C@H]2CN3C(=O)OC(C)(C)C)cn1 (single isomer, unassigned)")
"< 7.30"
>>> value_reported("CCCN(c1ccc(C(C)(C)CC(=O)O)cc1Nc1ccc(Cl)cc1)C1CCOCC1")
"> 8.30"
>>> value_reported("CCOc1ccc(Nc2cc([C@@H](CC)CC(=O)O)ccc2N(CC)C2CCOCC2)cn1 (single isomer, unassigned)")
"> 8.30"
>>> value_reported("CCC(CC(=O)O)c1ccc(N2CC(O)(c3ccc(F)cc3)C2)c(Nc2ccc(C#N)cc2)c1 (single isomer, unassigned)")
"> 7.30"

The record that follows has no pIC50 shown yet.
-- ask Bench note: what pIC50 did COCC(CC(=O)O)c1ccc(N2CCOC(C)(C)C2)c(Nc2ccc(C#N)cc2)c1 (single isomer, unassigned) show?
-- reply < 7.30

* * *

# Target or test system: human IDO1 (Homo sapiens, UniProt P14902)
# Sequence (P14902 whole entry): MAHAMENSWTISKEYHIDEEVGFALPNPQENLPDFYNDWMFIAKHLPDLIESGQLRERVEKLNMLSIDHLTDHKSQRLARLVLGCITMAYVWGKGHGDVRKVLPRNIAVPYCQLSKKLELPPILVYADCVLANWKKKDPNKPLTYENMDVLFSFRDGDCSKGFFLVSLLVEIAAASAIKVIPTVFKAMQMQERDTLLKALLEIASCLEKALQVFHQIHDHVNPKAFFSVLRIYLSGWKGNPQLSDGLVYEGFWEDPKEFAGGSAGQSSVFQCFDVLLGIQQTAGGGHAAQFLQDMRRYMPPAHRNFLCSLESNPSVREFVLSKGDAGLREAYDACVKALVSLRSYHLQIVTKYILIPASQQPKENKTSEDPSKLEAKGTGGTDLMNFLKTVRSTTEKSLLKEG
# Experimental protocol: Assessment of human IDO-1 inhibitory activity in HEK cells (human IDO1/HEK293 cells, kynurenine read-out with Ehrlich reagent, absorbance 490 nm)
# Type: cell-based
# Set-up: expressed in transfected cells
# Test context: HEK Human IDO-1 cellular assay
Observed property: IC50

These solved cases illustrate the format of a correct answer.
>>> value_reported("CCC(CC(=O)O)c1ccc(N2CCC[C@@H]2C(C)(C)O)c(Nc2ccc3c(c2)OC(F)(F)O3)c1 (single isomer, unassigned) [Example 781]")
"> 50 nM"
>>> value_reported("CCC(CC(=O)O)c1cc(NC(=O)Nc2cnc(OC)nc2)c(N(CC(C)C)CC(C)C)cc1F (racemic) [Example 1140]")
"< 5 nM"
>>> value_reported("CCC(CC(=O)O)c1cc(F)c(N(CC(C)C)CC(C)C)c(NC(=O)Cc2ccc(C)cc2F)c1 (single isomer, unassigned) [Example 1094 E2]")
"< 5 nM"
>>> value_reported("CCC(CC(=O)O)c1ccc(N2CCC[C@H]2C(C)(C)O)c(Nc2cnc(OCC3CC3)nc2)c1 (single isomer, unassigned) [Example 822]")
"> 50 nM"
>>> value_reported("CCOc1ncc(Nc2cc(C(C)CC(=O)O)ccc2N2CCC[C@H]2C(C)(C)O)cn1 (single isomer, unassigned) [Example 800]")
"> 50 nM"

-- ask What value of measured IC50 is listed for COCC(CC(=O)O)c1ccc(N(CC(C)C)C2CCCCC2)c(NC(=O)Nc2cncnc2)c1 (single isomer, unassigned) [991-2] ?
-- reply < 5 nM
